# study_system: SIRT6 (Homo sapiens)
# protocol_details: SIRT6 enzymatic activity assay with fluorophore (AMC)-labeled Lysin-myristoylated histone H3 peptide (de-myristoylation, trypsin release)
# Type: biochemical
# Set-up: six-histidine tag; made in house; host or cells: Escherichia coli BL21
# experimental_conditions: amount tested 20 uM; Example 5, Table 9
Class (by % Activity) -- low end: < 50%; middle: ≥ 50% and < 60%; high end: ≥ 60%

Sort into band: CN(C)CCCN(C(=O)CCS(=O)(=O)c1ccccc1)c1nc2ccc(F)cc2s1
middle

Hey, which category is COc1cccc2sc(N(CCCN(C)C)C(=O)CCS(=O)(=O)c3ccccc3)nc12 in, do you know?
high end

Exam item: assign O=C(c1ccccc1Br)N1C(=O)c2ccccc2S1(=O)=O to the correct category.
middle

Any idea which band CN1CCC(NC(=O)C2CCN(c3nc4ccc(-c5ccccc5)nc4s3)CC2)CC1 is in?
low end

Lab note: which band did COc1cc(C(=O)Oc2ccc3c4c(c(=O)oc3c2)CCC4)cc(OC)c1OC land in?
middle

Which of the defined bands does the recorded % Activity of CCN(CC)CCN(C(=O)CCS(=O)(=O)c1ccccc1)c1nc2c(C)cccc2s1 sit within?
high end

The entry to classify is COCCCNC(=O)C1CCN(c2nc3ccc(-c4cncnc4)nc3s2)CC1 ; which class holds it?
high end

Which category fits this record: CN(C)CCN(C(=O)CCS(=O)(=O)c1ccccc1)c1nc2c(Cl)cccc2s1
high end

Assign a bin to CCS(=O)(=O)c1nc2ccccc2n1CC(=O)Nc1ccccc1C(=O)OC
high end

Hey, which category is COC(=O)CSc1ccc(C#N)c(SCC(=O)OC)c1 in, do you know?
low end

Category of Cc1ccc(C(=O)Oc2ccc3c4c(c(=O)oc3c2C)CCC4)cc1 :
middle

Hello team, could you let me know which band the following compound falls into: COc1ccc(C(=O)Oc2ccc3c4c(c(=O)oc3c2)CCCC4)cc1
high end

Lab log: Cc1c(OC(=O)c2ccccc2)ccc2c3c(c(=O)oc12)CCC3 — assign % Activity category
low end

Which band does CCCCCCOc1ccc(C(=O)Nc2nc3ccc(OC)cc3s2)cc1 fall in?
low end

Into which bin does this compound go? CC(=O)Oc1ccc2c3c(c(=O)oc2c1C)CCCC3
high end

Where would CCCCCCc1c(C)c2ccc(OC(C)=O)c(C)c2oc1=O land among the classes by reported % Activity?
low end

Lab log: CC1CCN(C(=O)C2CCN(c3nc4ccc(-c5ccncc5)nc4s3)CC2)CC1 — assign % Activity category
low end

Which bin should I file Cc1c(Cc2ccccc2)c(=O)oc2c(C)c(OC(=O)C3CCCCC3)ccc12 under?
high end

* * *

# study_system: SIRT6 (Homo sapiens, UniProt Q8N6T7)
# Sequence (Q8N6T7 whole entry): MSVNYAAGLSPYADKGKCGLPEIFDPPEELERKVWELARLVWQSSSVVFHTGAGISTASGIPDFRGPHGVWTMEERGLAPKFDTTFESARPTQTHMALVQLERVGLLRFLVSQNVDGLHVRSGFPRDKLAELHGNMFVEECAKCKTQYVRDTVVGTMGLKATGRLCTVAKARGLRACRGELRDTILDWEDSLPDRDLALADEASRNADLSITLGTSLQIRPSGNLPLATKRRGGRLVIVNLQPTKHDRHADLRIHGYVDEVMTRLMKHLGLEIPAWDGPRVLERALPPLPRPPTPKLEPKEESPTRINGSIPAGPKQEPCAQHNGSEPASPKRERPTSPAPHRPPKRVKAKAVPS
# protocol_details: SIRT6 enzymatic activity assay with fluorophore (AMC)-labeled Lysin-myristoylated histone H3 peptide (de-myristoylation, trypsin release)
# Type: biochemical
# Design: six-histidine tag; made in house; host or cells: Escherichia coli BL21
# experimental_conditions: compound 20 uM; percentage of signal increase relative to control wells; Tables 1-2
Would you mind telling me the reported % activity 20 uM of each entry?
Report the value in % with no unit label.

Read the entry CCOC(=O)C1CCCN(S(=O)(=O)c2ccc(-c3ccc(N4CCOCC4)nn3)s2)C1 (stereo not shown) and write its reported % activity 20 uM.
52

Give the measured % activity 20 uM for Cc1cccc2sc(N(CCCN(C)C)C(=O)CCOc3ccccc3)nc12
263

Give the value of % activity 20 uM reported for the following: O=c1[nH]c2ccc(Cl)cc2c(-c2ccccc2)c1Nc1ccc(Oc2ccccc2)cc1
24

Supply measured % activity 20 uM of CCC(=O)Nc1ccc(-c2cc(C(=O)NCCCN3CCCCCC3)c3ccccc3n2)cc1 in your reply.
62

Please report the measured % activity 20 uM for CC(C)Cn1c(=O)c(-c2ccc(C(=O)N3CCN(c4ccccc4)CC3)cc2)nc2ccccc21
51

Return reported % activity 20 uM. Input compound: CCCNC(=O)c1ccc(-c2ccc(N3CCCCC3)nc2)cc1
63

State its % activity 20 uM: C=C(Nc1cc(C)cc(C)c1)Nc1nnc(SCC2=CC(=C)N3C=C(C)C=CC3=N2)s1
34

Give me measured % activity 20 uM, please, for this compound: CCC(=O)Nc1ccc(-c2cc(C(=O)NCCCN3CCCC(C)C3)c3ccccc3n2)cc1 (stereo not shown)
61

Given the compound C=C1Cc2c(cccc2CC)C=C1c1csc(NC(=O)CCC(=O)NCCCN2CCC(C)CC2)n1 , write its reported % activity 20 uM.
42

Name the recorded % activity 20 uM of the item CCOc1ccc(NC(=O)c2sc3nc(C)nc(N(C)c4ccc(C(C)C)cc4)c3c2C)cc1 in your answer.
32

Indicate the recorded % activity 20 uM value for this compound: C=C(Cn1c(C)cc(C)c(C2=NC(c3ccccc3)=NC2)c1=O)NC1CCCCC1
53

Supply measured % activity 20 uM of CCOCCCNc1nc2ccccc2nc1S(=O)(=O)Cc1ccc(Cl)cc1 in your reply.
91

Quickly give me recorded % activity 20 uM for C=C(Oc1ccc2cnccc2c1)c1sc2ccccc2c1N
154

* * *

# study_system: SIRT6 (Homo sapiens)
# protocol_details: SIRT6 enzymatic activity assay with fluorophore (AMC)-labeled Lysin-myristoylated histone H3 peptide (de-myristoylation, trypsin release)
# Type: biochemical
# Set-up: six-histidine tag; made in house; host or cells: Escherichia coli BL21
# experimental_conditions: amount tested 20 uM; Example 5, Table 9
Consider the following compounds; for each one, report its % Activity.
Please report the result as a number followed by the unit.

For the compound Cc1ccc(COc2ccc3c4c(c(=O)oc3c2C)CCC4)cc1 , report % Activity.
21%

Give the reported % Activity for this compound. Cc1c(Cc2ccccc2)c(=O)oc2cc(OCc3c(Cl)cccc3Cl)ccc12
21%

Fill in reported % Activity for this entry: COC(=O)COc1cccc2c1ccc1c3c(c(=O)oc12)CCCC3
30%

For Cc1c(Cc2ccccc2)c(=O)oc2c(C)c(OC(=O)C3CC3)ccc12 , write its % Activity.
30%

Give % Activity for CN(C)CCNC(=O)C1CCN(c2nc3ccc(-c4cccnc4)nc3s2)CC1
31%

Tell me its % Activity given CCN(CC)CCN(C(=O)CCOc1ccccc1)c1nc2c(F)cccc2s1 as the entry.
60%

Supply reported % Activity belonging to this compound: Cc1cc(C)c2sc(N(CCCN(C)C)C(=O)CCS(=O)(=O)c3ccccc3)nc2c1
115%

Identify measured % Activity associated with Cc1cc(C)c2c(N)c(-c3nnc(-c4ccccc4)o3)sc2n1
42%

Please look at this compound and report its % Activity: CCCCCCc1c(C)c2cc(C)c(OC(=O)c3cccc(OC)c3)cc2oc1=O
63%

# return recorded % Activity for input O=C(CSc1nc2ncccc2n2cccc12)NCc1ccco1
88%

Input CN1CCN(C(=O)C2CCN(c3nc4ccc(-c5ccccc5)nc4s3)CC2)CC1 , output reported % Activity.
67%

Give the reported value of % Activity for this record: CCN(CC)C(=O)C1CCN(C2=Nc3ccc(-c4ccncc4)nc3C2)CC1
85%

Return % Activity for the following compound: CCC(=O)Oc1ccc2c(C)c(Cc3ccccc3)c(=O)oc2c1C
273%

Indicate the recorded % Activity value for this compound: COc1ccc(C)c2sc(N(CCN(C)C)C(=O)CCS(=O)(=O)c3ccccc3)nc12
59%

Item COc1ccc(C(=O)Oc2ccc3c4c(c(=O)oc3c2)CCC4)cc1OC : provide % Activity
294%

* * *

# study_system: SIRT6 (Homo sapiens, UniProt Q8N6T7)
# protocol_details: SIRT6 enzymatic activity assay with fluorophore (AMC)-labeled Lysin-myristoylated histone H3 peptide (de-myristoylation, trypsin release)
# Format: biochemical
# Parameters: six-histidine tag; made in house; host or cells: Escherichia coli BL21
# experimental_conditions: amount tested 20 uM; Example 5, Table 9
reported_endpoint: % Activity (%)
Provide the reading as a plain figure in %.

Name the recorded % Activity of Cc1ccccc1C(=O)Oc1ccc2c3c(c(=O)oc2c1)CCC3 [2712-4063] , assay system SIRT6 (Homo sapiens, UniProt Q8N6T7).
61

For SIRT6 (Homo sapiens, UniProt Q8N6T7), give % Activity of the listed compound: CNC(=O)N1CCc2c(sc3ncnc(NCCCOC)c23)C1 [S324-0365]
60

State measured % Activity of the compound Cc1c(Cc2ccccc2)c(=O)oc2cc(OC(=O)C3CCCCC3)ccc12 [Y040-7756] with SIRT6 (Homo sapiens, UniProt Q8N6T7).
61

State the measured % Activity (SIRT6 (Homo sapiens, UniProt Q8N6T7)) of CCOc1cccc2sc(N(CCN(C)C)C(=O)CCS(=O)(=O)c3ccccc3)nc12 [E676-1270]
61

Find % Activity for CN(C)CCNC(=O)C1CCN(c2nc3ccc(-c4cncnc4)nc3s2)CC1 [T387-0941] on SIRT6 (Homo sapiens, UniProt Q8N6T7) and write it down.
49

State % Activity (SIRT6 (Homo sapiens, UniProt Q8N6T7)) of Cc1cc(C)c2sc(N(Cc3cccnc3)C(=O)CCS(=O)(=O)c3ccccc3)nc2c1 [G856-7064] .
61

Data provenance is patent US11278525B1.
